- assay.protocol: Case report: DHEA substitution in probable 17,20-desmolase deficiency (Patient B, Example 5)
- Format: in vivo, human
- condition.set: human, in vivo, oral, 25 mg daily, December 2003, on DHEA, normal (130-980), read-out: DHEA level
- Protocol: In a further study, a case of probable 17, 20-desmolase deficiency, resulting in abnormally low estradiol, DHEA, androstenedione and testosterone levels, is presented in a person with a clinical history of, initially, unexplained infertility and, later, prematurely aging ovaries. In July of 2003, the patient was started on 25 mg daily of micronized DHEA. After five weeks of treatment, DHEA, DHEA-S and androstenedione levels had normalized into mid-ranges. […]
test.readout: concentration at 5 months (ng/mL)

{"molecule": "C[C@]12CC[C@H](O)CC1=CC[C@@H]1[C@@H]2CC[C@]2(C)C(=O)CC[C@@H]12 [DHEA, Dehydroepiandrosterone]", "units.of.measure": "ng/mL", "recorded.number": 278}
